Target: Coagulation factor VII (Homo sapiens, UniProt P08709)
Sequence (P08709 whole entry): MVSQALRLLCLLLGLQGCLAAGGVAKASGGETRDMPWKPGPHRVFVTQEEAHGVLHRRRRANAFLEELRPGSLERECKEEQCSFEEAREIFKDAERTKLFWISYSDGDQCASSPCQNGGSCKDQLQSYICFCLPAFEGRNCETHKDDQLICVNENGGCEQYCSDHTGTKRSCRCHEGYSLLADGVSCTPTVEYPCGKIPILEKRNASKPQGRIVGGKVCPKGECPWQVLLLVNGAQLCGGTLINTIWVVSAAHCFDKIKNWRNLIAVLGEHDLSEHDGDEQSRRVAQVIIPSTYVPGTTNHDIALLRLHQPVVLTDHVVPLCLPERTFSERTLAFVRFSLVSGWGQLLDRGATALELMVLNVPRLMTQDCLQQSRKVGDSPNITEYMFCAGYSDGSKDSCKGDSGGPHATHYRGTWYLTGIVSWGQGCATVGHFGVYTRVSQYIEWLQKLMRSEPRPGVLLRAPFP
Test: Binding affinity to F7a/TF complex
measured.parameter: Ki (nM)

Before answering, review these 2 worked examples.
compound: N=C(N)c1ccc2[nH]c(-c3cc(C(CC(=O)O)C(=O)O)cc(-c4cc(CCC(=O)O)ccc4O)c3O)nc2c1 (centres undefined)
system.under.test: Coagulation factor VII (Homo sapiens, UniProt P08709)
reported: 13
//
compound: N=C(N)c1ccc2[nH]c(-c3cc(C(CC(=O)O)C(=O)O)cc(-c4cc(C(N)=O)ccc4O)c3O)nc2c1 (centres undefined)
system.under.test: Coagulation factor VII (Homo sapiens, UniProt P08709)
reported: 14

A = N=C(N)c1ccc2nc(-c3cc(C(CC(=O)O)C(=O)O)cc(-c4cc(CC(N)=O)ccc4O)c3O)[nH]c2c1 (centres undefined)
B = N=C(N)c1ccc2[nH]c(-c3cc(C(CC(=O)O)C(=O)O)cc(-c4cc(CN)ccc4O)c3O)nc2c1 (centres undefined)
[ask] # query: argmin of Ki over A and B Respond with the label that goes with your answer.
[reply] A
(A: 12 nM, B: 35 nM)
